Tested on: RXF 393
Test: NCI tumour cell line growth inhibition, 48 h
Activity calls are given as the source filed them. Rule as the data show it: active = GI50 up to about 1.1 µM and inactive = higher.
GI50 values for the compounds below.
MEASURED PROPERTY: GI50

INSERT INTO results (compound, assay_result) VALUES
  ('CCC1C(C)c2c([nH]c3ccccc23)C2C(=O)N(c3ccccc3)C(=O)C21 (stereo unspecified)', '12.7 µM (inactive)'),
  ('C#CC(O)/C=C/C(O)CCCC(O)CC#CC(O)C#CCCCCC(O)/C=C/CCCC(O)/C=C/CCCCCCCCCCCCCC(O)C(O)C#CC(=O)O (stereo unspecified)', '> 25 µM (inactive)'),
  ('O=C1C2CC=CCC2C(=O)N1n1c(Cc2ccccc2)n[nH]c1=O (stereo unspecified)', '> 100 µM (inactive)'),
  ('CCCCCCC(=O)OC[n+]1ccc2c(C)c3[nH]c4ccc(OC)cc4c3c(C)c2c1', '0.247 µM (active)'),
  ('CN(/N=C(\C(=O)O)c1ccccc1)C1=NCCCN1', '> 100 µM (inactive)'),
  ('N#C/C(=C/Sc1ccccc1)C(=O)O', '14.3 µM (inactive)'),
  ('O=c1c2ccccc2sc2ccccc12', '> 100 µM (inactive)'),
  ('N#CC12C(=O)N3C(=NC(c4ccccc4)NC3c3ccccc3)C1(C#N)C(c1ccccc1)NC1=C2CCCC1 (stereo unspecified)', '> 100 µM (inactive)'),
  ('Cc1ccc(S(=O)(=O)N/N=C2/C(=O)Nc3c(Cl)cc(Cl)cc32)cc1', '43.3 µM (inactive)'),
  ('Nc1ccc2c(c1)nc1n2C(c2c(F)cccc2F)SC1 (stereo unspecified)', '> 100 µM (inactive)'),
  ('CCOC(=O)/C=C(\C)c1ccc(C)cc1C', '14.4 µM (inactive)');

----------
Entries with reported GI50 on HCT-15
MEASURED PROPERTY: GI50 (µM)

INSERT INTO assay_data (compound, censoring_operator, assay_result) VALUES
  ('CC1=NN(C(=O)c2ccccc2)C(=O)C1/N=N/c1ccccc1C(=O)O (stereo not given)', '=', 4.85),
  ('Cc1c2cc[n+]([O-])cc2c(C)c2c1[nH]c1ccccc12', '=', 5.22),
  ('COC(=O)C1C(O)CC(c2ccccn2)N(Cc2ccccc2)C1c1ccccn1 (stereo not given)', '>', 100),
  ('COc1ccc2nc3n(c2c1)C(c1c(F)cccc1Cl)SC3 (stereo not given)', '>', 100),
  ('CCCCN/N=N/c1cn(C2OC(CO)C(O)C2O)c(=O)[nH]c1=O (stereo not given)', '>', 100),
  ('CN1CCCCC(C(O)(c2ccccc2)c2ccccc2)C1=O (stereo not given)', '=', 16.3),
  ('CCc1cc2c(oc3cc4ccccc4cc32)c(=O)[nH]1', '>', 10),
  ('Cc1cc(C)n(CN(Cn2nc(C)cc2C)c2ccccc2)n1', '=', 19.6),
  ('CCCCCCC(=O)OC[n+]1ccc2c(C)c3[nH]c4ccc(OC)cc4c3c(C)c2c1', '=', 0.117),
  ('C=C1C(=O)OC2C1C(OC(=O)/C(C)=C/C)CC1(C)C(=O)CCC(=C)C21 (stereo not given)', '=', 3.15),
  ('COc1c(C(=O)/C(=N/Nc2ccccc2)C(C)=O)c(O)c(OC)c2occc12', '=', 56.2),
  ('COC(=O)C(C(=O)C(=O)Nc1cccc(OC)c1)c1cnc2ccccc2n1 (stereo not given)', '>', 100),
  ('N#CCC(=O)N1CCCOCCC1', '=', 17.9),
  ('CC(C)c1cc(C(C)C)c(B(c2ccccc2)c2ccccc2)c(C(C)C)c1Br', '>', 100),
  ('O=[N+]([O-])c1ccc(C2=NOC(c3ccccc3)N2C23CC4CC(CC(C4)C2)C3)cc1 (stereo not given)', '=', 29.8),
  ('COC[C@@H](/N=C/c1ccc(OC)cc1)C(C)C', '>', 100),
  ('C/C(=N\NC(=S)N(C)C)c1nc2cccnc2[nH]1', '=', 0.443),
  ('CN1CCN(C2=NCCO2)CC1', '>', 100),
  ('O=C1Nc2ccccc2/C1=C1\C(=O)Nc2ccccc21', '=', 3.84),
  ('COCO[C@@H]1C[C@H]2C(=O)Nc3ccccc3C(=O)N2C1', '>', 100),
  ('C#Cc1c(C)c(/C=C/C(C)=C/C(=O)OC)n(C)c1C', '=', 95.3),
  ('C=CNC(=S)n1nc(-c2ccccc2NC(=O)C(F)(F)F)c(=O)n(C(=S)NC=C)c1=S', '=', 16.4),
  ('Nc1ccc(C(=O)NN2C(=O)C(Cl)C2c2cccc([N+](=O)[O-])c2)cc1 (stereo not given)', '=', 18.6),
  ('O=C(/C=C/c1ccccc1)/C=C/c1ccccc1O', '=', 15.9),
  ('O=C(NNC(=O)c1csc(NC(=S)NC2CCCCC2)n1)c1ccccc1', '=', 2.74);
